# Test system: Candida tropicalis CGMCC 2.1975
RESULT TYPE: MIC (µM)
Please respond with the number in µM and leave the unit unwritten.

- SAMPLE SMILES: "CC[C@H](C)[C@H](NC(=O)[C@H](CCCN=C(N)N)NC(=O)[C@H](C)NC(=O)[C@H](C)N)C(=O)N[C@H](C(=O)N[C@@H](CC(C)C)C(=O)N[C@@H](CCCN=C(N)N)C(=O)N[C@@H](Cc1ccc(O)cc1)C(=O)N[C@@H](CCCN=C(N)N)C(=O)N[C@@H](Cc1ccccc1)C(=O)N[C@@H](CCCN=C(N)N)C(N)=O)[C@@H](C)CC"
  UNITS OF MEASURE: "µM"
  MEASURED NUMBER: 16

Would you kindly look at the next entry?
Quick check: MIC of `CC[C@H](C)[C@H](N)C(=O)N[C@@H](Cc1cnc[nH]1)C(=O)N[C@@H](Cc1cnc[nH]1)C(=O)N[C@H](C(=O)N[C@@H](Cc1cnc[nH]1)C(=O)N[C@@H](Cc1cnc[nH]1)C(=O)N[C@@H](Cc1cnc[nH]1)C(=O)N[C@H](C(=O)N[C@@H](Cc1cnc[nH]1)C(=O)N[C@@H](Cc1cnc[nH]1)C(=O)N[C@H](C(=O)N[C@@H](Cc1cnc[nH]1)C(=O)N[C@@H](Cc1cnc[nH]1)C(=O)N[C@@H](Cc1cnc[nH]1)C(N)=O)[C@@H](C)CC)[C@@H](C)CC)[C@@H](C)CC` ?
1
